Documented normalized growth across a set of molecules
- test: chemical genetic growth profiling, strain panel (AID 1159580);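 note: tested at 20 µM; growth read once vehicle control cultures reached saturation at 30 °C; 1 = growth at the plate median or of vehicle wells; lower values mean less growth of the strain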
- statedConditions: S. cerevisiae deletion strains, growth OD, locus YIL125W, strain kgd1, stronger effect = lower value
Among all 5,500 compounds or so, about 2,000 (36%) were called active. Not shown: some 18% with an inconclusive outcome. The list shows a part of the results.
propertyLabel: normalized growth

Clc1ccc(C(OCCN2CCCCC2)c2ccccc2)cc1 (stereo unspecified): 1
CCN(CC)Cc1ccc(Nc2ccnc3cc(Cl)ccc23)cc1O: 1
c1ccc2c(c1)CCCC2C1=NCCN1 (stereo unspecified): 0.958
COc1ccc(C(=O)CC(=O)O)c2c1C=CC(C)(C)O2: 1.01
O=C(OCC(O)CO)c1ccccc1Nc1ccnc2cc(Cl)ccc12 (stereo unspecified): 0.991
CCN1CCCC(OC(=O)C(c2ccccc2)c2ccccc2)C1 (stereo unspecified): 1
